The origin of these recorded values is ChEMBL document CHEMBL5543153.

System: PC-3
Assay: cells
Conditions: Homo sapiens, PC-3, 72 h
Description: Synergistic antiproliferative activity against human PC-3 cells assessed as inhibition of cell growth incubated for 72 hrs in presence of gefitinib by MTT assay
Quantity kind: pIC50
Answer as the number alone; pIC50 is minus log10 of concentration in mol/L.

Quick check: pIC50 of "COc1cc2nc(C)nc(N[C@H](C)c3cc(N)cc(C(F)(F)F)c3)c2cc1O[C@H]1CCOC1" ?
5.86

* * *

Test: Antiproliferative activity against human RWPE-1 cells assessed as inhibition of cell growth incubated for 72 hrs by MTT assay
Assay type: toxicity, cell-based
Quantity kind: IC50 at 72 h

What IC50 at 72 h value was documented for this molecule, "COc1cc2ncnc(N[C@H](C)c3cccc(F)c3)c2cc1OC1CCOCC1" ?
> 10 µM
